- measurementContext: in isopropanol, 278.15 K
observationType: solubility (mole fraction)

>>> result("O=Cc1cc(Br)c(O)c(Br)c1")
0.003

* * *

- measurementContext: in n-propanol, 278.15 K
observationType: solubility (mole fraction)

>>> numericvalue("O=Cc1cc(Br)c(O)c(Br)c1")
0.00339

* * *

- measurementContext: in isobutanol, 308.15 K
observationType: solubility (mole fraction)

>>> numericvalue("O=Cc1cc(Br)c(O)c(Br)c1")
0.00878

* * *

- measurementContext: in ethylene glycol, 313.15 K
observationType: solubility (mole fraction)

>>> numericvalue("O=Cc1cc(Br)c(O)c(Br)c1")
0.00796
